- experiment: Bidirectional permeability across Caco-2 cell monolayers
- Type: in vitro ADME
- conditionDetails: human; Caco-2, 1 μM
readout: Papp A→B at 120 min, 1 μM

Value of Papp A→B at 120 min, 1 μM reported for the compound C[C@]12CC[C@@H]3c4ccc(B(O)O)cc4C[C@@H](CCCCCCCCC[S+]([O-])CCCC(F)(F)C(F)(F)F)[C@H]3[C@@H]1CC[C@@H]2O (stereo partly shown) [ZB716, fulvestrant-3-boronic acid] is < 0.778 ×10⁻⁶ cm/s

---

- experiment: Single-dose PK and bioavailability of ZB716 in rats
- Format: in vivo
- conditionDetails: female, Sprague Dawley, rat, plasma; single dose, PO 100 mg/kg/day, F
readout: AUC(0-t)
Provide the measurement as a number trailed by its unit.

Value of AUC(0-t) reported for the molecule C[C@]12CC[C@@H]3c4ccc(B(O)O)cc4C[C@@H](CCCCCCCCC[S+]([O-])CCCC(F)(F)C(F)(F)F)[C@H]3[C@@H]1CC[C@@H]2O (stereo partly shown) is 30500 ng·h/mL

Origin of the recorded values: paper PMC8400955
